Recorded measurements of normalized growth, one per entry
Assay: chemical genetic growth profiling, strain panel (AID 1159580);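 also: tested at 20 µM; growth read once vehicle control cultures reached saturation at 30 °C; 1 = growth at the plate median or of vehicle wells; lower values mean less growth of the strain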
Settings: S. cerevisiae deletion strains, growth OD, locus YCL029C, strain bik1, hits give low values
Hit rate of the full screen: of about 5,500 compounds, about 2,000 (36%) were called active. Another 18% or so got no clear call; they are omitted. The list shows a part of the results.
measurementName: normalized growth

[[record]]
molecule = "CC(=O)Nc1ccc(OCC(O)CNC(C)C)cc1 (stereo not given)"
resultnumber = 0.995

[[record]]
molecule = "N#CC(O[C@@H]1O[C@H](CO[C@@H]2O[C@H](CO)[C@@H](O)[C@H](O)[C@H]2O)[C@@H](O)[C@H](O)[C@H]1O)c1ccccc1 (stereo not given in full)"
resultnumber = 1

[[record]]
molecule = "COc1cc(C(=O)O[C@H]2CC[C@@]3(C)[C@@H]4CC[C@H]5[C@]6(O)C[C@H](O)[C@@]7(O)[C@@H](CN8C[C@@H](C)CC[C@H]8[C@@]7(C)O)[C@]6(O)C[C@@]53O[C@]24O)cc(OC)c1OC"
resultnumber = 0.98

[[record]]
molecule = "NCCC(=O)N[C@@H](Cc1cnc[nH]1)C(=O)O"
resultnumber = 0.967

[[record]]
molecule = "CO[C@@]12[C@@H]3NC3CN1C1=C(C(=O)C(N)=C(C)C1=O)[C@@H]2COC(N)=O (stereo not given in full)"
resultnumber = 0.971


* * *

Assay: chemical genetic growth profiling, strain panel (AID 1159580);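 also: tested at 20 µM; growth read once vehicle control cultures reached saturation at 30 °C; 1 = growth at the plate median or of vehicle wells; lower values mean less growth of the strain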
Settings: S. cerevisiae deletion strains, growth OD, locus YKR091W, strain srl3, hits give low values
Out of some 5,500 compounds screened, about 2,000 (36%) were called active. Inconclusive results (about 18%) are left out. This is one part of the list.
measurementName: normalized growth

[[record]]
compound = "CCCOc1ccccc1-c1nc2n[nH]nc2c(=O)[nH]1"
measurementname = "normalized growth"
resultnumber = 1

[[record]]
compound = "CCCCCCCCCCCCCCC(C(=O)O)C(O)(CC(=O)OC)C(=O)O (stereo not drawn)"
measurementname = "normalized growth"
resultnumber = 1.01

[[record]]
compound = "CCOP(=S)(OCC)Oc1nc(Cl)c(Cl)cc1Cl"
measurementname = "normalized growth"
resultnumber = 0.948

[[record]]
compound = "NCCC(=O)N[C@@H](Cc1cnc[nH]1)C(=O)O"
measurementname = "normalized growth"
resultnumber = 1.01

[[record]]
compound = "COc1cc(C(=O)NCCCCCC(=O)O)cc(OC)c1OC"
measurementname = "normalized growth"
resultnumber = 0.984

[[record]]
compound = "CC(=O)O[C@H]1CC[C@@]2(C)C(CC[C@]3(C)C2CC=C2C4CC(C)(C)CC[C@]4(C)CC[C@]23C)C1(C)C (stereo partly drawn)"
measurementname = "normalized growth"
resultnumber = 0.986

[[record]]
compound = "Cc1cn([C@H]2C[C@H](N=[N+]=[N-])[C@@H](CO)O2)c(=O)[nH]c1=O"
measurementname = "normalized growth"
resultnumber = 0.999

[[record]]
compound = "O=C(O)CC(O)(CC(=O)O)C(=O)O"
measurementname = "normalized growth"
resultnumber = 1.01

[[record]]
compound = "C[C@@H]1OC(O[C@H]2C(O[C@H]3CC[C@@]4(C)C(CC[C@]5(C)C4CC=C4C6CC(C)(C)CC[C@]6(C(=O)O)CC[C@]45C)[C@]3(C)CO)OC[C@H](O)[C@@H]2O)[C@H](O)[C@H](O)[C@H]1O (stereo partly drawn)"
measurementname = "normalized growth"
resultnumber = 0.0568

[[record]]
compound = "Cc1ccc(-c2cc(C(F)(F)F)nn2-c2ccc(S(N)(=O)=O)cc2)cc1"
measurementname = "normalized growth"
resultnumber = 1.02

[[record]]
compound = "Nc1ccc(S(=O)(=O)c2ccc(N)cc2)cc1"
measurementname = "normalized growth"
resultnumber = 1

[[record]]
compound = "CC1(C)CC[C@]2(C)CC[C@]3(C)C(=CCC4[C@@]5(C)CC[C@H](O)C(C)(C)C5CC[C@]43C)C2C1 (stereo partly drawn)"
measurementname = "normalized growth"
resultnumber = 0.993

[[record]]
compound = "C#C[C@]1(OC(C)=O)CCC2C3CCC4=C/C(=N\\O)CCC4C3CC[C@@]21CC (stereo partly drawn)"
measurementname = "normalized growth"
resultnumber = 0.941

[[record]]
compound = "Cc1cc(O)cc(C)c1Cl"
measurementname = "normalized growth"
resultnumber = 0.958

[[record]]
compound = "C#C[C@]1(O)CCC2C3CCC4=C(CCC(=O)C4)C3CC[C@@]21C (stereo partly drawn)"
measurementname = "normalized growth"
resultnumber = 0.982

[[record]]
compound = "Cc1cc(O)cc(O)c1C(=O)O"
measurementname = "normalized growth"
resultnumber = 1.01

[[record]]
compound = "C[C@@H]1CC[C@]2(C(=O)O)CC[C@]3(C)C(=CCC4[C@@]5(C)CC[C@H](O)C(C)(C)C5CC[C@]43C)C2[C@H]1C (stereo partly drawn)"
measurementname = "normalized growth"
resultnumber = 0.991

[[record]]
compound = "CC(C)(C#N)O[C@@H]1O[C@H](CO)[C@@H](O)[C@H](O)[C@H]1O"
measurementname = "normalized growth"
resultnumber = 1

[[record]]
compound = "NC(Cc1c[nH]c2ccccc12)C(=O)O (stereo not drawn)"
measurementname = "normalized growth"
resultnumber = 1.02

[[record]]
compound = "CCC(C)C(=O)O[C@H]1[C@H](O)C2C(CN3CC(C)CCC3[C@@]2(C)O)C2C[C@]34O[C@]5(O)C(OC(=O)C(C)(O)CC)CC[C@@]3(C)C5C(OC(C)=O)[C@@H](OC(C)=O)C4[C@@]21O (stereo partly drawn)"
measurementname = "normalized growth"
resultnumber = 1.02

[[record]]
compound = "CC(CC(=O)C1OC1(C)C)C1C(=O)CC2(C)C3=CCC4C(C)(C)C(OC5OCC(O)C(O)C5O)CCC45CC35C(O)CC12C (stereo not drawn)"
measurementname = "normalized growth"
resultnumber = 1.03

[[record]]
compound = "CC(=O)O[C@@H]1CC[C@@]2(C)C(CC[C@]3(C)C2CC=C2C4CC(C)(C)CC[C@]4(C(=O)O)CC[C@]23C)C1(C)C (stereo partly drawn)"
measurementname = "normalized growth"
resultnumber = 1

[[record]]
compound = "Cc1ccc(S(=O)(=O)NC(=O)NN2CC3CCCC3C2)cc1 (stereo not drawn)"
measurementname = "normalized growth"
resultnumber = 0.974

[[record]]
compound = "CC1(C)CC[C@@]2(C(=O)O)C(C1)C1=CCC3[C@@]4(C)CC[C@H](O)C(C)(C)C4CC[C@@]3(C)[C@]1(C)C[C@@H]2O (stereo partly drawn)"
measurementname = "normalized growth"
resultnumber = 1.01

[[record]]
compound = "C/C=C1\\[C@H]2C=C(C)C[C@]1(N)c1ccc(=O)[nH]c1C2"
measurementname = "normalized growth"
resultnumber = 1.02

[[record]]
compound = "C#C[C@]1(O)CCC2C3CCC4=CC(=O)CC[C@@H]4C3CC[C@@]21C (stereo partly drawn)"
measurementname = "normalized growth"
resultnumber = 0.982

[[record]]
compound = "CC1OC(=O)C(C(C)C)NC(=O)C(C(C)C)OC(=O)C(C(C)C)NC(=O)C(C)OC(=O)C(C(C)C)NC(=O)C(C(C)C)OC(=O)C(C(C)C)NC(=O)C(C)OC(=O)C(C(C)C)NC(=O)C(C(C)C)OC(=O)C(C(C)C)NC1=O (stereo not drawn)"
measurementname = "normalized growth"
resultnumber = 0.476

[[record]]
compound = "CCCCCCCCCCCC[C@H](C(=O)O)[C@@H](C)C(=O)O"
measurementname = "normalized growth"
resultnumber = 0.974

[[record]]
compound = "NC12CC3CC(CC(C3)C1)C2"
measurementname = "normalized growth"
resultnumber = 1

[[record]]
compound = "CC1(C)CC(O)C2(C)CCC3(C)C(=CCC4C5(C)CCC(O)C(C)(CO)C5CCC43C)C2C1 (stereo not drawn)"
measurementname = "normalized growth"
resultnumber = 1.03

[[record]]
compound = "CC(C)(Sc1cc(C(C)(C)C)c(O)c(C(C)(C)C)c1)Sc1cc(C(C)(C)C)c(O)c(C(C)(C)C)c1"
measurementname = "normalized growth"
resultnumber = 1.02

[[record]]
compound = "COc1c(-c2coc3cc4c(cc3c2=O)CC(O)C(C)(C)O4)ccc2c1C=CC(C)(C)O2 (stereo not drawn)"
measurementname = "normalized growth"
resultnumber = 0.992

[[record]]
compound = "CC1(C)CC[C@]2(C(=O)O)CC[C@]3(C)C(=CCC4[C@@]5(C)CC[C@H](O)[C@@](C)(CO)C5CC[C@]43C)C2C1 (stereo partly drawn)"
measurementname = "normalized growth"
resultnumber = 1.03


* * *

Assay: chemical genetic growth profiling, strain panel (AID 1159580);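 also: tested at 20 µM; growth read once vehicle control cultures reached saturation at 30 °C; 1 = growth at the plate median or of vehicle wells; lower values mean less growth of the strain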
Conditions: S. cerevisiae deletion strains, growth OD, locus YGR229C, strain SMI1, hits give low values
About 2,000 (36%) of roughly 5,500 compounds were called active. About 18% were inconclusive and are not listed. The list shows a part of the results.
Mark each entry t if its normalized growth sits below 1, and f for all others.

[[record]]
compound = "NC(N)=[N+]1CCc2ccccc2C1"
classification = "t"

[[record]]
compound = "CC(=O)NC(C(=O)O)C(C)(C)SN=O (stereo not drawn)"
classification = "f"


Data origin: PubChem BioAssay AID1159580
